Give % Inhibition of Salivation for every item shown.
Test system: salivation in rabbits
ASSAY_TEXT: Salivation inhibition in rabbits (pilocarpine-increased salivation; anticholinergic action)
Type: in vivo
CONDITIONS: light urethane narcosis, 3 mg/kg i.v., pilocarpine 5 mg/kg s.c.
Where a name gives a salt, the structure may show the parent alone.
Reply numerically in %, unit not repeated.

Prompt: Entry CNCCC=C1c2ccccc2C=Cc2c(C)cccc21.Cl has what % Inhibition of Salivation?
Completion: 60

Prompt: Entry Cc1cccc2c1CCc1ccccc1C2=CCCN(C)C.Cl has what % Inhibition of Salivation?
Completion: 50

Prompt: Entry CNCCC=C1c2ccccc2CCc2c(C)cccc21.Cl has what % Inhibition of Salivation?
Completion: 50

Prompt: Entry CNCCCC1c2ccccc2CCc2c(C)cccc21.Cl (stereo not shown) has what % Inhibition of Salivation?
Completion: 40

Prompt: Entry Cc1cccc2c1CCc1ccccc1C2CCCN(C)C.Cl (stereo not shown) has what % Inhibition of Salivation?
Completion: 50

Prompt: Entry Cc1cccc2c1C=Cc1ccccc1C2=CCC[N+](C)(C)[O-] [hydrochloride] has what % Inhibition of Salivation?
Completion: 14

Prompt: Entry Cc1cccc2c1C=Cc1ccccc1C2=CCCN(C)C.Cl has what % Inhibition of Salivation?
Completion: 60
